Where these numbers come from: ChEMBL document CHEMBL3286215

measurement_target: Acetylcholinesterase (Torpedo californica)
assay: Inhibition of Pacific electric ray AChE using acetylthiocholine iodide as substrate at 200 uM after 60 mins by Ellman's method relative to control
experimental_setup: Tetronarce californica
So I've got a bunch of compounds here, and I need their inhibition values.
Answers are plain numbers, in %.

C=CCCC(=O)O[C@H]1CC[C@]2(C)[C@H]3CC[C@@H]4[C@H]5[C@H](C(=C)C)CC[C@]5(C)[C@@H](OC(=O)CCC=C)C[C@@]4(C)[C@]3(C)CC[C@H]2C1(C)C
6.4
C=C(C=O)[C@@H]1CC[C@@]2(C)[C@H]1[C@H]1CC[C@@H]3[C@@]4(C)CC[C@H](O)C(C)(C)[C@@H]4CC[C@@]3(C)[C@]1(C)C[C@@H]2O
43.5
C=C(C=O)[C@@H]1CC[C@]2(C)C(=O)C[C@]3(C)[C@H](CC[C@@H]4[C@@]5(C)CCC(=O)C(C)(C)[C@@H]5CC[C@]43C)[C@@H]12
21.7

# batch size: 7; output inhibition per entry
1. C=C(COC(C)=O)[C@@H]1CC[C@@]2(C)[C@H]1[C@H]1CC[C@@H]3[C@@]4(C)CC[C@H](OC(C)=O)C(C)(C)[C@@H]4CC[C@@]3(C)[C@]1(C)C[C@@H]2OC(C)=O
2. C=C(COS(=O)(=O)O)[C@@H]1CC[C@@]2(C)[C@H]1[C@H]1CC[C@@H]3[C@@]4(C)CC[C@H](OS(=O)(=O)O)C(C)(C)[C@@H]4CC[C@@]3(C)[C@]1(C)C[C@@H]2OS(=O)(=O)O
3. CC1(C)[C@@H](OS(=O)(=O)O)CC[C@]2(C)[C@H]3CC[C@@H]4[C@H]5[C@H]([C@@]6(C)CO6)CC[C@]5(C)[C@@H](OS(=O)(=O)O)C[C@@]4(C)[C@]3(C)CC[C@@H]12
4. CC1(C)[C@@H](O)CC[C@]2(C)[C@H]3CC[C@@H]4[C@H]5[C@H]([C@@]6(C)CO6)CC[C@]5(C)[C@@H](O)C[C@@]4(C)[C@]3(C)CC[C@@H]12
5. C=C(C=O)[C@@H]1CC[C@@]2(C)[C@H]1[C@H]1CC[C@@H]3[C@@]4(C)CC[C@H](OC(C)=O)C(C)(C)[C@@H]4CC[C@@]3(C)[C@]1(C)C[C@@H]2OC(C)=O
6. C=C(C)[C@@H]1CC[C@@]2(C)[C@H]1[C@H]1CC[C@@H]3[C@@]4(C)CC[C@H](OC(=O)CCCCC(=O)O)C(C)(C)[C@@H]4CC[C@@]3(C)[C@]1(C)C[C@@H]2OC(=O)CCCCC(=O)O
7. C=C(C)[C@@H]1CC[C@@]2(C)[C@H]1[C@H]1CC[C@@H]3[C@@]4(C)CC[C@H](OC(C)=O)C(C)(C)[C@@H]4CC[C@@]3(C)[C@]1(C)C[C@@H]2OC(C)=O

Key:
1: 7.2; 2: 12.9; 3: 13.7; 4: 24.3; 5: 6.8; 6: 20.2; 7: 3.3
